Test system: MDA-MB-435
Test: NCI tumour cell line growth inhibition, 48 h
READOUT_TYPE: TGI

COc1ccc(-c2oc3cc(OC)ccc3c(=O)c2O)cc1    > 31.6 µM

Ask | Please look up its TGI: CCC(C)C(NC(=O)C(CCCC[N+](=N)N)NC(=O)C(CCCC[N+](=N)N)NC(=O)c1ccc(OC)cc1)C(=O)NC(CCCC[N+](=N)N)C(=O)N1CCCC1C(=O)NC(CCCCN)C(=O)NC(CC(C)C)C(N)=O (centres undefined)
Reply | > 100 µM

Ask | Please look up its TGI: COC(=O)Cc1c2n(c3ccccc13)C(=O)N1c3ccccc3C(CC(=O)OC)C21 (centres undefined)
Reply | > 100 µM

Ask | Please look up its TGI: Cc1nn(C(=O)c2ccccc2O)c2c1C(c1ccc([N+](=O)[O-])cc1)SC(N)=N2 (centres undefined)
Reply | > 10 µM

---

Measured TGI values are reported for all entries that follow.
Test system: 786-0 renal
Assay: NCI tumour cell line growth inhibition, 48 h
Supply the numeric figure in µM, leaving out any unit text.

Previously resolved entries follow.
C/C(=N\O)[C@H]1CC[C@@]2(C)[C@@H]3CC[C@H]4C(C)(C)/C(=N/O)CC[C@@]45CC35CC[C@]12C (some centres undefined)    6.85
N#Cc1c(-c2ccc(Cl)cc2)csc1NC(=O)Nc1cccc(C(F)(F)F)c1    4.85
CN(C)CCN1C(=O)N(CCN(C)C)c2c3cc(O)ccc3nc3c([N+](=O)[O-])ccc1c23    19

Moving on to the next compound.
Ask | Please look up its TGI: COc1ccc(-c2nc(/C=N/Nc3cc(C)nc4ccc(Br)cc34)c(C)o2)cc1
Reply | 3.22

---

Measured TGI values are reported for all entries that follow.
Test system: HOP-62 NSCLC
Test: NCI tumour cell line growth inhibition, 48 h

Previously resolved entries follow.
O=C(O)Cn1c[n+](NC(=O)Cc2ccccc2)cn1    > 10 µM
C=C1c2ccccc2N(S(=O)(=O)c2ccc(C)cc2)C12CCCCC2    > 100 µM
COc1ccc(-c2cn(-c3cc(OC)c(OC)c(OC)c3)c(=O)n2-c2ccccc2)cc1    > 100 µM
COC(=O)c1ccc2cc(O)ccc2c1    > 100 µM
O=c1ccn([C@@H]2C=C(CO)[C@@H](O)[C@H]2O)c(=O)[nH]1    > 625 µM
CC(C)c1ccc2c(c1)c(SC(C)(C)C)c(CC(C)(C)C(=O)O)n2Cc1ccc(Cl)cc1    28.9 µM

Ask | Checklist item: TGI tested on HOP-62 NSCLC, entry COc1cc(/C=C2\C(=O)Nc3ccc(Br)cc32)cc(OC)c1OC , value?
Reply | 81.4 µM

Ask | Checklist item: TGI tested on HOP-62 NSCLC, entry CC(=O)Nc1ccc2c(c1)nc1c3ccccc3ccn21 , value?
Reply | > 100 µM

Ask | Checklist item: TGI tested on HOP-62 NSCLC, entry O=C(Nc1nc2ccc(F)cc2s1)c1cccnc1Nc1ccc(Cl)cc1Cl , value?
Reply | 12.8 µM

Ask | Checklist item: TGI tested on HOP-62 NSCLC, entry O=C(/C=C/CC(O)(c1ccccc1)c1ccccc1)Nc1ccccc1Cl , value?
Reply | > 100 µM

Ask | Checklist item: TGI tested on HOP-62 NSCLC, entry COc1cc2c(c(OC)c1OC)-c1ccc(SC)c(=O)cc1[C@@H](NC(=O)c1ccc(F)cc1)CC2 , value?
Reply | 39.9 µM

Ask | Checklist item: TGI tested on HOP-62 NSCLC, entry Oc1ccc(C[C@@H]2CN[C@H](Cc3ccc(O)c(Br)c3)CN2)cc1 , value?
Reply | > 100 µM

Ask | Checklist item: TGI tested on HOP-62 NSCLC, entry NC(=O)c1c(NC(=O)c2cccc(C(F)(F)F)c2)sc2c1CCC(=O)C2 , value?
Reply | > 91.5 µM

Ask | Checklist item: TGI tested on HOP-62 NSCLC, entry CN1CCN(CCCOc2ccc3ncnc(Nc4ccc(Oc5cccc(F)c5)c(Cl)c4)c3c2)CC1 , value?
Reply | 3.76 µM

Ask | Checklist item: TGI tested on HOP-62 NSCLC, entry Cn1c(=O)c2[nH]c(Nc3cccc(Cl)c3)nc2n(C)c1=O , value?
Reply | > 10 µM

Ask | Checklist item: TGI tested on HOP-62 NSCLC, entry COc1cc2c3cc1Oc1cc(ccc1O)C[C@@H]1c4c(cc(OC)c(O)c4Oc4ccc(cc4)C[C@@H]3[N+](C)(C)CC2)CC[N+]1(C)C , value?
Reply | > 100 µM

Ask | Checklist item: TGI tested on HOP-62 NSCLC, entry Nc1cc2nc(-c3ccccc3)cn2cn1 , value?
Reply | > 100 µM

Ask | Checklist item: TGI tested on HOP-62 NSCLC, entry Cc1cc(S(N)(=O)=O)c(S/C(=N\NS(=O)(=O)c2ccccc2)c2ccc(Cl)c(Cl)c2)cc1Cl , value?
Reply | > 100 µM

Ask | Checklist item: TGI tested on HOP-62 NSCLC, entry O=C(O)C(O)c1ccc(F)cc1 (stereo not given) , value?
Reply | > 100 µM

Ask | Checklist item: TGI tested on HOP-62 NSCLC, entry COc1ccc2nc3cc(Cl)ccc3c(Nc3ccc(O)c(CN4CCCC4)c3)c2c1 , value?
Reply | 5.34 µM

Ask | Checklist item: TGI tested on HOP-62 NSCLC, entry C#CCn1cc(C=C2C(=O)NC(=S)NC2=O)c2cc(Cl)ccc21 , value?
Reply | 8.98 µM
